Known IC50 of a selection of compounds
- targetOrTestSystem: HDAC4 (Homo sapiens)
- experimentalDetails: HDAC4 fluorogenic activity assay (BPS Bioscience kit)
- experimentalContext: read-out: IC50 (μM) for HDAC4; highest concentration 500 μM
Form field: result (number plus unit)

Worked cases, IC50 given:
{"compound": "CC12CCC(C(NC(=S)NN)C1=O)C2(C)C (stereo not shown) [Compound 36425]", "propertyLabel": "IC50", "reportedMeasurement": "480 µM"}
{"compound": "O=[N+]([O-])c1cc(-c2cccnc2)n[nH]1 [Compound 4135]", "propertyLabel": "IC50", "reportedMeasurement": "410 µM"}
{"compound": "NS(=O)(=O)c1ccc(N=Nc2ccc(=O)[nH]c2O)cc1 [Compound 134199]", "propertyLabel": "IC50", "reportedMeasurement": "33 µM"}

Attention now turns to another entry.
Kindly note the recorded IC50 for O=C(CN1CCOCC1)N1CCOCC1 [Compound 51936] , which is 550 µM

----------
- targetOrTestSystem: HDAC4 (Homo sapiens, UniProt P56524)
- Sequence (P56524 whole entry): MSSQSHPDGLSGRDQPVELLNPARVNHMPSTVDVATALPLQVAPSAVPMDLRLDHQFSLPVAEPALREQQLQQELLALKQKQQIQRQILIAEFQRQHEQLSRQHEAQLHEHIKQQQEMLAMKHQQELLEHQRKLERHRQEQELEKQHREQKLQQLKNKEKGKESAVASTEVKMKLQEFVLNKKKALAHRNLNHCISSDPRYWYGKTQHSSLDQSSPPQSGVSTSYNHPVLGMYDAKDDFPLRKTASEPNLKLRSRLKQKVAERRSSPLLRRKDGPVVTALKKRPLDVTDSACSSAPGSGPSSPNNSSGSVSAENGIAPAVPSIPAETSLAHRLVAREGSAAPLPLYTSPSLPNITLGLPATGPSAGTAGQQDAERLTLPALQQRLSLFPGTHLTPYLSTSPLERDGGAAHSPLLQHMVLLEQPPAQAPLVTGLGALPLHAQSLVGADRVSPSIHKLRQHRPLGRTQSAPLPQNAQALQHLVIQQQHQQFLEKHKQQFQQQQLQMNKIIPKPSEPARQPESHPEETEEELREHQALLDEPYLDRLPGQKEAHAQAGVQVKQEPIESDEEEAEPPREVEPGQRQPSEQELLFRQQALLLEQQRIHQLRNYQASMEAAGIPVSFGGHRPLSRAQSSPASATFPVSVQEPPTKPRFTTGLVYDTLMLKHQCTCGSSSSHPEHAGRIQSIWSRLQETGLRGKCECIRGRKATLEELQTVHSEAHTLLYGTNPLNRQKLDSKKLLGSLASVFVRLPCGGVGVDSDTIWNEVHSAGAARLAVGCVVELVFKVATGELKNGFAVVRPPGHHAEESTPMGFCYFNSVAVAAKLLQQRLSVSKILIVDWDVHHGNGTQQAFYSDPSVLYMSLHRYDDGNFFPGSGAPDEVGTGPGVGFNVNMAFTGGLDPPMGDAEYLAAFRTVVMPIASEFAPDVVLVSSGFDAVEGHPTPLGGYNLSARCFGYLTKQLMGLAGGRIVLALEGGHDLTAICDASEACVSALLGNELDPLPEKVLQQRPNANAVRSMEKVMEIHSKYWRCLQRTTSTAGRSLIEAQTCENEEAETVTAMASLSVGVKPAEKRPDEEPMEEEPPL
- experimentalDetails: HDAC4 fluorogenic activity assay (BPS Bioscience kit)
- experimentalContext: 100 μM compound, compared to absence of inhibitor
propertyLabel: relative percent activity of HDAC4 (activity retained)

Worked cases, relative percent activity of HDAC4 (activity retained) given:
{"compound": "CCCn1cnc2c(Sc3c([N+](=O)[O-])ncn3C)nc(N)nc21", "reportedMeasurement": "unchanged"}
{"compound": "COc1ccc2c(c1)NP(=S)(Oc1ccccc1)N2 (stereo not drawn)", "reportedMeasurement": "< 40%"}
{"compound": "CN(C)c1ncnc2c1ncn2-c1ccccc1", "reportedMeasurement": "unchanged"}
{"compound": "O=C(Nc1ccc(C2=NCCN2)cc1)c1ccc(Cl)c(C(=O)Nc2ccc(C3=NCCN3)cc2)c1", "reportedMeasurement": "≤ 40%"}
{"compound": "NS(=O)(=O)c1ccc(N=Nc2ccc(=O)[nH]c2O)cc1", "reportedMeasurement": "≤ 40%"}

Attention now turns to another entry.
Kindly note the recorded relative percent activity of HDAC4 (activity retained) for NC(=S)NN=Cc1cc(-c2cccc(N)c2)ccn1 , which is unchanged

----------
- Test system: transitional urothelial carcinoma SW780 cell line
- experimentalDetails: MTT cell viability assay, SW780
- experimentalContext: Homo sapiens, SW780, 48 h, read-out: IC50 (cell viability)
propertyLabel: IC50 (µM)
// return numeric value only (unit: µM, not printed)

{"compound": "COc1cccc2c1cc([N+](=O)[O-])c1c(C(=O)O)cc3c(c12)OCO3", "propertyLabel": "IC50", "reportedMeasurement": 223}
{"compound": "CCCn1cnc2c(Sc3c([N+](=O)[O-])ncn3C)nc(N)nc21", "propertyLabel": "IC50", "reportedMeasurement": 213}
{"compound": "O=C(Nc1ccc(C2=NCCN2)cc1)c1ccc(Cl)c(C(=O)Nc2ccc(C3=NCCN3)cc2)c1", "propertyLabel": "IC50", "reportedMeasurement": 131}

The recorded IC50 with transitional urothelial carcinoma SW780 cell line for CCOC(=O)C(=NO)C1=CSC2=NNC(C)(C)N12 was 300

The recorded IC50 with transitional urothelial carcinoma SW780 cell line for NC(=S)NN=Cc1cc(-c2cccc(N)c2)ccn1 was 89

----------
- targetOrTestSystem: HDAC3 (Homo sapiens)
- Sequence (O15379 whole entry): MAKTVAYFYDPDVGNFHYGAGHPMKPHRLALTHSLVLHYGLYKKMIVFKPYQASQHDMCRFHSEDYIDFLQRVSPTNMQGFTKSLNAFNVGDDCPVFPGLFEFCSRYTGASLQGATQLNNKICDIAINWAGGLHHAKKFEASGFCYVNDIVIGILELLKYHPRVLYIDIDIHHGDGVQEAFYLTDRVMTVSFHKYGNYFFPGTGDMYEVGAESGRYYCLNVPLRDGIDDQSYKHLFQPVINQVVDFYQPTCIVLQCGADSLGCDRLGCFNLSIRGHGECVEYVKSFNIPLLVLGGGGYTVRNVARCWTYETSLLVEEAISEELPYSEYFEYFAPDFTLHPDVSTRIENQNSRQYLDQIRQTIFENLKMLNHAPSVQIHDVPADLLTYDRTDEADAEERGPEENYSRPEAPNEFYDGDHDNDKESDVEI
- Sequence (Q9Y618 395-489 partner limits assumed): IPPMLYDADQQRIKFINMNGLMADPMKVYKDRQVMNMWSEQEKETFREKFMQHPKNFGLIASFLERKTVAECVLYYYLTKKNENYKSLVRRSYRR
- experimentalDetails: HDAC3 fluorogenic activity assay (BPS Bioscience kit)
Known IC50 of a selection of compounds

{"compound": "CCOC(=O)C(=NO)C1=CSC2=NNC(C)(C)N12", "propertyLabel": "IC50", "reportedMeasurement": "> 500 µM"}

Kindly note the recorded IC50 for NC(=S)NN=Cc1cc(-c2cccc(N)c2)ccn1 , which is > 500 µM

Kindly note the recorded IC50 for COc1cc(C2NC(=O)C(C#N)=C(Nc3cccc(C)c3)S2)ccc1O (stereo not shown) , which is > 500 µM

Kindly note the recorded IC50 for COc1ccc2c(c1)NP(=S)(Oc1ccccc1)N2 (stereo not shown) , which is 210 µM

Kindly note the recorded IC50 for O=C(Nc1ccc(C2=NCCN2)cc1)c1ccc(Cl)c(C(=O)Nc2ccc(C3=NCCN3)cc2)c1 , which is 9.2 µM

Kindly note the recorded IC50 for COc1cccc2c1cc([N+](=O)[O-])c1c(C(=O)O)cc3c(c12)OCO3 , which is > 500 µM

Kindly note the recorded IC50 for CCCn1cnc2c(Sc3c([N+](=O)[O-])ncn3C)nc(N)nc21 , which is > 500 µM

----------
Known pIC50 of a selection of compounds
- targetOrTestSystem: HDAC4 (Homo sapiens, UniProt P56524)
- experimentalDetails: HDAC4 fluorogenic activity assay (BPS Bioscience kit)
In plain terms, pIC50 is the concentration in mol/L turned into minus its base-10 logarithm.

Worked cases, pIC50 given:
{"compound": "O=C(Nc1ccc(C2=NCCN2)cc1)c1ccc(Cl)c(C(=O)Nc2ccc(C3=NCCN3)cc2)c1", "propertyLabel": "pIC50", "reportedMeasurement": 4.33}
{"compound": "COc1cc(C2NC(=O)C(C#N)=C(Nc3cccc(C)c3)S2)ccc1O (stereo not shown)", "propertyLabel": "pIC50", "reportedMeasurement": 3.82}
{"compound": "CCOC(=O)C(=NO)C1=CSC2=NNC(C)(C)N12", "propertyLabel": "pIC50", "reportedMeasurement": 3.60}

The recorded pIC50 with HDAC4 (Homo sapiens, UniProt P56524) for COc1ccc2c(c1)NP(=S)(Oc1ccccc1)N2 (stereo not shown) was 4.00
